Kindly state cell viability for each of the entries shown.
tested on: HepG2; assay: cell viability relative to DMSO; higher = less toxic; conditions: 72 h; 1000 nM
Your answer should be a plain number; it is taken to be in %.

Measured cell viability of N=C(N)c1ccc(/C=C/c2ccc(C(=N)N)cc2O)cc1 [hydroxystilbamidine] : 95.5

Measured cell viability of "CCN(CC)CC(=O)Nc1c(C)cccc1C" : 116

Measured cell viability of "O=c1[nH]cc(F)c(=O)[nH]1" : 83.7

Measured cell viability of "CCc1ccc(OCc2ccccc2C(=O)Nc2ccc3nc(C)cc(N)c3c2)cc1" : 89

Measured cell viability of "CNC(=O)c1nn(C)c2c1C(C)(C)Cc1cnc(Nc3ccc(N4CCN(C)CC4)cc3)nc1-2" : 37.7

* * *

Kindly state cell viability for each of the entries shown.
system: Vero E6; test: cell viability relative to DMSO; higher = less toxic; settings: 72 h; 100 nM
Your answer should be a plain number; it is taken to be in %.

Assay Vero E6, sample Nc1nccc2c1ncn2[C@@H]1O[C@H](CO)[C@@H](O)[C@@H]1O [3-deazaadenosine] , cell viability read: 90.8

Assay Vero E6, sample CC(=O)Oc1cc(C(F)(F)F)ccc1C(=O)O [triflusal] , cell viability read: 97.7

Assay Vero E6, sample COc1ccc2c(c1)C(=O)N(CCc1ccc(S(=O)(=O)NC(=O)NC3CCCCC3)cc1)C(=O)C2(C)C [gliquidone] , cell viability read: 92.3

Assay Vero E6, sample O=C1C(c2ccccn2)=[N+]([O-])c2ccccc21 [PIT] , cell viability read: 97

Assay Vero E6, sample O=C(c1ccc(OCCCc2c[nH]cn2)cc1)C1CC1 [ciproxifan] , cell viability read: 101

Assay Vero E6, sample O=C(/C=C/N1C[C@H]2C[C@@H]1CN2c1ccccn1)c1ccccc1O [PFI-3] , cell viability read: 99.6

Assay Vero E6, sample c1ccc(CC2=NCCN2)cc1 [tolazoline] , cell viability read: 104

Assay Vero E6, sample CCCCCCCCCCCCCCOc1ccc(C(=O)O)o1 [KD-023] , cell viability read: 100

Assay Vero E6, sample C=CC1=C(C)C2=CC3=NC(=C(CC(=O)O)C4=NC(=C(C)C4=C(O)O)C=c4[nH]c(c(C)c4CC)=CC1=N2)C(CCC(=O)O)C3C (centres undefined) [chlorophyllin] , cell viability read: 95.7

* * *

Kindly state cell viability for each of the entries shown.
test system: Caco-2; assay: cell viability relative to DMSO; higher = less toxic; conditions: 72 h; 1000 nM

Assay Caco-2, sample "COc1cc(OC)c2c(=O)[nH]c(-c3cc(C)c(OCCO)c(C)c3)nc2c1" , cell viability read: 101%

Assay Caco-2, sample C[N+]1(C)[C@@H]2CC[C@H]1C[C@@H](OC(=O)C(O)c1ccccc1)C2 (some centres undefined) [homatropine-methylbromide] , cell viability read: 106%

Assay Caco-2, sample CCC(NC(C)C)C(O)c1ccc(O)c(O)c1 (centres undefined) , cell viability read: 102%

Assay Caco-2, sample "O=C(/C=C/N1C[C@H]2C[C@@H]1CN2c1ccccn1)c1ccccc1O" , cell viability read: 98.1%

Assay Caco-2, sample Cc1cccc(N(C)C(=S)Oc2ccc3ccccc3c2)c1 [tolnaftate] , cell viability read: 94.8%

Assay Caco-2, sample "O=C1NC(=O)/C(=C/c2ccc3nccc(-c4ccncc4)c3c2)S1" , cell viability read: 95.5%

Assay Caco-2, sample CCC(CC)O[C@@H]1C=C(C(=O)O)C[C@H](N)[C@H]1NC(C)=O [oseltamivir-carboxylate] , cell viability read: 99.5%

Assay Caco-2, sample "O=C(NCCN1CCC2(CC1)C(=O)NCN2c1cccc(F)c1)c1ccc2ccccc2c1" , cell viability read: 90.8%

Assay Caco-2, sample "Cc1ccc(C(=O)Nc2ccc(S(=O)(=O)O)c3cc(S(=O)(=O)O)cc(S(=O)(=O)O)c23)cc1NC(=O)c1cccc(NC(=O)Nc2cccc(C(=O)Nc3cc(C(=O)Nc4ccc(S(=O)(=O)O)c5cc(S(=O)(=O)O)cc(S(=O)(=O)O)c45)ccc3C)c2)c1" , cell viability read: 90.9%

* * *

test system: Caco-2; experiment: cell viability relative to DMSO; higher = less toxic; conditions: 72 h; 100 nM
Field 'label' (enum: Satisfied / Not satisfied). Set to Satisfied when cell viability is strictly under 90%; else Not satisfied.

Data request: Is cell viability of "CN1CCN(c2ccc(OC(F)(F)F)c(Nc3ncc4c(n3)-c3c(c(C(N)=O)nn3CCO)CC4)c2)CC1" strictly below 90%?
Data returned: Satisfied

Data request: Is cell viability of "O=C(CCBr)N1CC[N+]2(CC1)CC[N+]1(CCN(C(=O)CCBr)CC1)CC2" strictly below 90%?
Data returned: Not satisfied

Data request: Is cell viability of "CN(C(=O)c1c(O)c2ccccc2n(C)c1=O)c1ccccc1" strictly below 90%?
Data returned: Satisfied

Data request: Is cell viability of "O=C(c1ccc(Nc2nccc(-c3cc4ccccc4s3)n2)cc1)N1CCC(N2CCCC2)CC1" strictly below 90%?
Data returned: Not satisfied

Data request: Is cell viability of "O=C1c2ccccc2C(=O)C1c1ccccc1" strictly below 90%?
Data returned: Not satisfied

Data request: Is cell viability of "CSc1ccc(C(=O)N[C@@H]2CCCC[C@@H]2NC(=O)CNC(=O)c2cc(C(F)(F)F)ccc2NC(=O)NC(C)C)cc1" strictly below 90%?
Data returned: Not satisfied

Data request: Is cell viability of "CO/N=C1/C[C@@H](C(=O)NC[C@@H](O)c2ccccc2)N(C(=O)c2ccc(-c3ccccc3C)cc2)C1" strictly below 90%?
Data returned: Not satisfied

Data request: Is cell viability of "C=C1CC[C@@]2(O)[C@H]3Cc4ccc(O)c5c4[C@@]2(CCN3CC2CC2)[C@H]1O5" strictly below 90%?
Data returned: Not satisfied

Data request: Is cell viability of "Oc1ccc(-c2nc3cc(O)cc(Br)c3o2)cc1" strictly below 90%?
Data returned: Not satisfied

Data request: Is cell viability of "CCC[C@H](N[C@@H](C)C(=O)N1[C@H](C(=O)O)C[C@@H]2CCCC[C@@H]21)C(=O)O" strictly below 90%?
Data returned: Not satisfied

Data request: Is cell viability of Oc1cccc(Nc2ccc(Nc3cccc(O)c3)nn2)c1 [beta-amyloid-synthesis-inhibitor] strictly below 90%?
Data returned: Not satisfied

Data request: Is cell viability of NCCC(Oc1ccc(C(F)(F)F)cc1)c1ccccc1 (configuration not stated) strictly below 90%?
Data returned: Not satisfied

Data request: Is cell viability of "CC(C)[C@H](CO)Nc1nc(Nc2ccc(C(=O)O)c(Cl)c2)c2ncn(C(C)C)c2n1" strictly below 90%?
Data returned: Not satisfied

Data request: Is cell viability of "CN[C@H](C(=O)N[C@H](C(=O)N(C)[C@H](/C=C(\C)C(=O)O)C(C)C)C(C)(C)C)C(C)(C)c1ccccc1" strictly below 90%?
Data returned: Satisfied

* * *

Kindly state cell viability for each of the entries shown.
test system: Caco-2; test: cell viability relative to DMSO; higher = less toxic; conditions: 72 h; 10 nM
Your answer should be a plain number; it is taken to be in %.

Measured cell viability of CC(C)(C)NCc1cc(Nc2ccnc3cc(Cl)ccc23)c2c(c1O)CCCC2 [naphthoquine-phosphate] : 99.7

Measured cell viability of "Cc1nc2ccc(Oc3ccc(F)cc3)cc2c(=O)n1C[C@H]1CCCN(C(C)C)C1" : 93.5

Measured cell viability of CCC(=O)OCC(=O)[C@@]1(OC(=O)CC)[C@@H](C)C[C@H]2[C@@H]3CCC4=CC(=O)C=C[C@]4(C)[C@@]3(Cl)[C@@H](O)C[C@@]21C [beclomethasone-dipropionate] : 97.3

Measured cell viability of "CC(=O)Oc1cc(C(F)(F)F)ccc1C(=O)O" : 106

Measured cell viability of O=C(O)CC/C=C\C[C@@H]1CO[C@H](c2ccccc2Cl)O[C@@H]1c1ccccc1O (racemic) : 90.3

Measured cell viability of C[N+]1(C)[C@@H]2CC[C@H]1C[C@@H](OC(=O)C(O)c1ccccc1)C2 (stereo partly drawn) [homatropine-methylbromide] : 90.8

Measured cell viability of "Oc1ccc(-c2nc3cc(O)cc(Br)c3o2)cc1" : 112

Measured cell viability of "O=[N+]([O-])c1cc2nc(O)c(O)nc2cc1[N+](=O)[O-]" : 94.2

Measured cell viability of "C[C@@H](N)Cc1c[nH]c2ccc(O)cc12" : 93

Measured cell viability of "Cc1cn([C@H]2C=C[C@@H](CO)O2)c(=O)[nH]c1=O" : 92.4

Measured cell viability of "CNC(=O)c1ccc(Nc2ncc(C(F)(F)F)c(NCc3nccnc3N(C)S(C)(=O)=O)n2)cc1" : 101

Measured cell viability of "NC1(C(=O)O)CC1" : 98.6

Measured cell viability of "c1ccc(CC2=NCCN2)cc1" : 93.1

Measured cell viability of "O=C(c1ccc(Nc2nccc(-c3cc4ccccc4s3)n2)cc1)N1CCC(N2CCCC2)CC1" : 102

Measured cell viability of "C=C1CC[C@@]2(O)[C@H]3Cc4ccc(O)c5c4[C@@]2(CCN3CC2CC2)[C@H]1O5" : 94.6

Measured cell viability of "COc1cc(NC(=O)c2ccc(-c3ccc(Cl)cc3)o2)cc(OC)c1" : 98.9

Measured cell viability of CC(C)(C)C(=O)CN1C(=O)[C@H](NC(=O)Nc2cccc(C(=O)O)c2)CN(C2CCCCC2)c2ccccc21 [nastorazepide] : 95.4

Measured cell viability of "O=C(OC(C(F)(F)F)C(F)(F)F)N1CCC(C(O)(c2ccc3c(c2)OCO3)c2ccc3c(c2)OCO3)CC1" : 99.6
